- Species: Rattus norvegicus
- assayComment: Open TG-GATES - Regimen: Single
- Type: toxicity, organism-based, Sprague-Dawley
- Parameters: regimen Single, gender Male, age 6 weeks
- assaySetup: in vivo, po, 300 mg/kg, 6 h, tissue Blood, route gavage, dose level Middle
attributeMeasured: Plat (x10_4/uL)
Dear colleague, please return just the value in x10_4/uL, with no unit written.

O=C(O)c1cc(/N=N/c2ccc(S(=O)(=O)Nc3ccccn3)cc2)ccc1O [SULFASALAZINE] | 115.4
C[C@H](CS)C(=O)N1CCC[C@H]1C(=O)O [CAPTOPRIL] | 116.7
Clc1ccccc1CN1CCc2sccc2C1 [TICLOPIDINE] | 131
O=C(O)c1cn(C2CC2)c2cc(N3CCNCC3)c(F)cc2c1=O [CIPROFLOXACIN] | 101.5

// below: Plat requested for another compound
Given item CCc1cc(C(N)=S)ccn1 [ETHIONAMIDE] , the value recorded as its Plat is 124

---

- Species on record: Rattus norvegicus
- assayComment: Open TG-GATES - Regimen: Daily Repeat
- Assay type: toxicity, organism-based, Sprague-Dawley
- Set-up: regimen Daily Repeat, gender Male, age 6 weeks
- assaySetup: in vivo, po, 0 mg/kg, 72 h, tissue Plasma, route gavage, dose level Control, time 3 day
attributeMeasured: AST (IU/L)
Dear colleague, please return just the value in IU/L, with no unit written.

Recorded results for 4 compounds are shown here.
NC(=O)N/N=C/c1ccc([N+](=O)[O-])o1 | 78.2
CSc1ccc2c(c1)N(CCC1CCCCN1C)c1ccccc1S2 (stereo not given) | 63.8
COc1ccc2c(c1)c(CC(=O)O)c(C)n2C(=O)c1ccc(Cl)cc1 | 60
Clc1ccccc1CN1CCc2sccc2C1 | 70.2

Given item CCc1cc(C(N)=S)ccn1 [ETHIONAMIDE] , the value recorded as its AST is 62.8

Given item NC(=O)N1c2ccccc2C=Cc2ccccc21 [CARBAMAZEPINE] , the value recorded as its AST is 77

Given item Cn1c(=O)c2[nH]cnc2n(C)c1=O.O , the value recorded as its AST is 71.4

Given item CC(=O)Oc1ccccc1C(=O)O , the value recorded as its AST is 73.2

Given item CO[C@H]1/C=C/O[C@@]2(C)Oc3c(C)c(O)c4c(O)c(c(/C=N/N5CCN(C)CC5)c(O)c4c3C2=O)NC(=O)/C(C)=C\C=C\[C@H](C)[C@H](O)[C@@H](C)[C@@H](O)[C@@H](C)[C@H](OC(C)=O)[C@@H]1C , the value recorded as its AST is 62.4

Given item O=C(O)c1cc(/N=N/c2ccc(S(=O)(=O)Nc3ccccn3)cc2)ccc1O , the value recorded as its AST is 74.2

Given item CN(C)CCC=C1c2ccccc2CCc2ccccc21 , the value recorded as its AST is 74.2

Given item O=C(O)c1cn(C2CC2)c2cc(N3CCNCC3)c(F)cc2c1=O , the value recorded as its AST is 66

Given item C[C@H](CS)C(=O)N1CCC[C@H]1C(=O)O , the value recorded as its AST is 64.8

Given item COc1ccc(Cc2nccc3cc(OC)c(OC)cc23)cc1OC , the value recorded as its AST is 70.2

Given item CCCC(CCC)C(=O)O , the value recorded as its AST is 65.4
